- testedOn: full-length beta-Catenin (Uniprot ID P35222) (Homo sapiens (Human)) (UniProt P35222)
- assayRemarks: fluorescence polarization competition; full-length beta-catenin, competitor 5FAM-TCF4(10-53) probe
pEC50: −log10 of the molar value. Starred links: 1 amine or outer side, 2 acyl side, 3 side chain; linkers in the order of their positions; H or OH if unused. Positions of bridges follow the written chain, without caps; N, C: chain ends. Non-standard residues stand in square brackets, D forms with d. Primed or numbered codes have the meaning given here. *: point of attachment. PyrS2″ = (S)-3-amino-1-((pent-4-en-1-yloxy)carbonyl)pyrrolidine-3-carboxylic acid (stapling residue), C=CCCCOC(=O)N1CC[C@@](N[*:1])(C(=O)[*:2])C1; B5(4) = 2,2-bis(4-pentenyl)glycine = 2-amino-2-(pent-4-en-1-yl)hept-6-enoic acid (stitching residue), C=CCCCC(CCCC=C)(N[*:1])C(=O)[*:2]; B5(5) = 2,2-bis(4-pentenyl)glycine, 2-amino-2-(pent-4-en-1-yl)hept-6-enoic acid (stitching residue), C=CCCCC(CCCC=C)(N[*:1])C(=O)[*:2]; TfeGA = (S)-2-amino-3-((carboxymethyl)(2,2,2-trifluoroethyl)amino)propanoic acid, O=C([C@H](CN(CC(=O)[*:3])CC(F)(F)F)N[*:1])[*:2]; PyrS2 = (S)-3-amino-1-((pent-4-en-1-yloxy)carbonyl)pyrrolidine-3-carboxylic acid, C=CCCCOC(=O)N1CC[C@@](N[*:1])(C(=O)[*:2])C1; B5(7) = 2-amino-2-(pent-4-en-1-yl)hept-6-enoic acid, two olefinic side chains, C=CCCCC(CCCC=C)(N[*:1])C(=O)[*:2]; B5(3) = 2,2-bis(4-pentenyl)glycine (stitching residue), C=CCCCC(CCCC=C)(N[*:1])C(=O)[*:2]; B5 = 2-amino-2-(pent-4-en-1-yl)hept-6-enoic acid, C=CCCCC(CCCC=C)(N[*:1])C(=O)[*:2]; Phe(4-COOH) = N[C@@H](Cc1ccc(C(=O)O)cc1)C(=O)O; Phe(2-Cl) = N[C@@H](Cc1ccccc1Cl)C(=O)O; Bta = N[C@@H](Cc1csc2ccccc12)C(=O)O; αAllylPro = C=CC[C@@]1(C(=O)O)CCCN1; tBuAla = CC(C)(C)C[C@H](N)C(=O)O; 3Thi = N[C@@H](Cc1ccsc1)C(=O)O; Cha = N[C@@H](CC1CCCCC1)C(=O)O; Cit = NC(=O)NCCC[C@H](N)C(=O)O; S8 = C=CCCCCCC[C@](C)(N)C(=O)O; Thr(ol) = C[C@@H](O)[C@H](N)CO; Leu(ol) = CC(C)C[C@H](N)CO; Abu = CC[C@H](N)C(=O)O; Alaol = C[C@@H](CO)N*; iPr = CC(C)*
Would you please tag the item YES when its pEC50 is 7 or above, and NO when it is below?

# input Please indicate if the recorded pEC50 for Ac-[αAllylPro]D[Cha][B5(5)]DDAAFL[PyrS2″][Phe(2-Cl)][Bta][Thr(ol)] (staple 1-4, 4-11) [I-1307] meets or exceeds 7.
# output YES

# input Please indicate if the recorded pEC50 for Ac-[αAllylPro]D[tBuAla][B5(5)]DDK(iPr)AFL[PyrS2″][Phe(2-Cl)][Bta][Thr(ol)] (staple 1-4, 4-11) [I-1313] meets or exceeds 7.
# output YES

# input Please indicate if the recorded pEC50 for Ac-[αAllylPro]D[tBuAla][B5(5)]DDAAFN[S8]F[Bta]H-NH2 (staple 1-4, 4-11) [I-582] meets or exceeds 7.
# output YES

# input Please indicate if the recorded pEC50 for Ac-[αAllylPro]DI[B5(5)]D[Phe(4-COOH)]AAFQ[S8]F[Bta]Q-NH2 (staple 1-4, 4-11; also: staple isomer, earlier eluting HPLC peak) [I-606] meets or exceeds 7.
# output NO

# input Please indicate if the recorded pEC50 for Ac-[αAllylPro]D[tBuAla][B5(4)]DDAAFN[PyrS2″][Phe(2-Cl)][Bta][Leu(ol)] (staple 1-4, 4-11) [I-1080] meets or exceeds 7.
# output YES

# input Please indicate if the recorded pEC50 for Ac-[αAllylPro]D[tBuAla][B5(7)]DDAAFQ[PyrS2][3Thi][Bta]Q-NH2 (staple 1-4, 4-11; also: earlier-eluting staple isomer) [I-763] meets or exceeds 7.
# output YES

# input Please indicate if the recorded pEC50 for Ac-[αAllylPro]D[tBuAla][B5(3)]DDAAFL[PyrS2][Phe(2-Cl)][Bta]S-NH2 (staple 1-4, 4-11; not fully specified; printed as Ac-PL3-Asp-Npg-B5-Asp-Asp-Ala-Ala-Phe-Leu-PyrS2-2C1F-BztA-Ser-NH2) [I-1064] meets or exceeds 7.
# output NO

# input Please indicate if the recorded pEC50 for Ac-[αAllylPro]DI[B5(5)]D[Cit]AAFQ[S8]F[Bta]Q-NH2 (staple 1-4, 4-11) [I-605] meets or exceeds 7.
# output NO

# input Please indicate if the recorded pEC50 for Ac-[αAllylPro]D[tBuAla][B5(7)]DDAAFQ[PyrS2][3Thi][Bta]H-NH2 (staple 1-4, 4-11; also: later-eluting staple isomer) [I-772] meets or exceeds 7.
# output YES

# input Please indicate if the recorded pEC50 for Ac-[αAllylPro]D[tBuAla][B5(7)]D[TfeGA]AAFN[PyrS2][3Thi][Bta]H-NH2 (staple 1-4, 4-11; also: earlier-eluting staple isomer) [I-769] meets or exceeds 7.
# output YES

# input Please indicate if the recorded pEC50 for Ac-[αAllylPro]D[Abu][B5]DDAAFN[S8]F[Bta]H-NH2 (staple 1-4, 4-11) [I-575] meets or exceeds 7.
# output YES

# input Please indicate if the recorded pEC50 for Ac-[αAllylPro]D[tBuAla][B5(7)]DDAAFQ[PyrS2][3Thi][Bta]Q-NH2 (staple 1-4, 4-11; also: later-eluting staple isomer) [I-764] meets or exceeds 7.
# output YES

# input Please indicate if the recorded pEC50 for Ac-[αAllylPro]D[tBuAla][B5(3)]DDAAFN[PyrS2″][Phe(2-Cl)][Bta]-Alaol (staple 1-4, 4-11) [I-1081] meets or exceeds 7.
# output YES

# input Please indicate if the recorded pEC50 for Ac-[αAllylPro]D[tBuAla][B5(3)]DEAAFL[PyrS2″][Phe(2-Cl)][Bta]S-NH2 (staple 1-4, 4-11; not fully specified; printed as Ac-PL3-Asp-Npg-B5-Asp-Glu-Ala-Ala-Phe-Leu-PyrS2-2C1F-BztA-Ser-NH2) [I-1067] meets or exceeds 7.
# output NO
